Origin of values: the supplement of paper PMC10338343

Test system: MIWI (PIWIL1) piRISC loaded with L1MC piRNA (30 nt);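 note: 1 nM active piRISC with 0.1 nM target library at 33 °C single turnover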
assaySummary: pre-steady-state target cleavage rate (min^-1); higher = faster piRNA-guided slicing of the target
testSettings: guide: L1MC piRNA 5'p-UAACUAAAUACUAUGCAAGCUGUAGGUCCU; auxiliary factor: 500 nM mouse GTSF1
Whole data set: some 8,200 sequences, median “pre-steady-state target cleavage rate” near 0.024, cut for the highest 2% near 1.3. The entries come from a sample that favours the highest values as a whole.
Mark y for reported pre-steady-state target cleavage rate of 1 or greater; mark n for anything smaller.

Observe how each entry below is paired with its result.
sequenceData	labelClass
UCGACCUACAGCUUGCAUAGUUAAUUCAAA	n
UCGACCUUGAGCUUGCAUAGUAUUUAGUUA	n
UCGACCUCACAGCUUGCAUAGUAUUUAGUUA	y
AGGCCUACAGCUUGCAUAGUAUUUAGUUA	y
UCCUGGAUGUGCUUGCAAAGUAUUUUGUUA	n
AGGACCUCACAGCUUGCAUAGUAUUUAGUUA	y

Dear colleague, could you confirm whether `UGGCCCUACAGCUUGCAUAGUAUUUAGUUA` has pre-steady-state target cleavage rate at or above 1?
y

Hello, I need to know if `UGGACCUCACAGCUUGCAUAGUAUUUAGUUA` has measured pre-steady-state target cleavage rate not below 1. Thanks!
y

---

System: MIWI (PIWIL1) piRISC loaded with L1MC piRNA (30 nt);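 note: 1 nM active piRISC with 0.1 nM target library at 33 °C single turnover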
assaySummary: pre-steady-state target cleavage rate (min^-1); higher = faster piRNA-guided slicing of the target
testSettings: guide: L1MC piRNA 5'p-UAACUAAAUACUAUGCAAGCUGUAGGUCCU; auxiliary factor: 500 nM mouse GTSF1
In all, about 8,200 sequences were measured (“pre-steady-state target cleavage rate”: median about 0.024, highest 2% from about 1.3 on). Shown is part of a subset that was picked to be rich in the highest values.
// Not met strictly below 1 in pre-steady-state target cleavage rate; Met otherwise

sequenceData	studySystem	labelClass
AGGACCUACAGCCUUGCAUAGUAUUUAGUUA	MIWI (PIWIL1) piRISC loaded with L1MC piRNA (30 nt)	Met
UGGACCUACAGCCUUGCAUAGUAUUUAGUUA	MIWI (PIWIL1) piRISC loaded with L1MC piRNA (30 nt)	Met
AGGACCUACAGCUUGCUUAGAAUUUAGUUA	MIWI (PIWIL1) piRISC loaded with L1MC piRNA (30 nt)	Not met
AGGACCUAACAGCUUGCAUAGUAUUUAGUUA	MIWI (PIWIL1) piRISC loaded with L1MC piRNA (30 nt)	Met
UCCACCUACAGCCUGCAUAGUAUUUAGUUA	MIWI (PIWIL1) piRISC loaded with L1MC piRNA (30 nt)	Met
UGGACCUACAGCUUGCAUAGUAUUUUAGUUA	MIWI (PIWIL1) piRISC loaded with L1MC piRNA (30 nt)	Met
UCCACCUACUGCUUGGAUAGUAUUUAGUUA	MIWI (PIWIL1) piRISC loaded with L1MC piRNA (30 nt)	Met
UCCACCGACAGCUUGCAUAGUAUUUAGUUA	MIWI (PIWIL1) piRISC loaded with L1MC piRNA (30 nt)	Met

Record `UCGACCUACAGCCUGCAUAGUAUUUAGUUA` ; criterion: pre-steady-state target cleavage rate no lower than 1. Met?
Met

Could you tell me if the measured pre-steady-state target cleavage rate of `AGGACCUACUGCUUGGAUAGUAUUUAGUUA` reaches 1 or more?
Met

Test whether the sequence `UGCACCUACAGCUUGCAUAGUAUUUAGUUA` records pre-steady-state target cleavage rate of 1 or higher.
Met

---

Tested on: MIWI (PIWIL1) piRISC loaded with L1MC piRNA (30 nt);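 note: 1 nM active piRISC with 0.1 nM target library at 33 °C single turnover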
assaySummary: pre-steady-state target cleavage rate (min^-1); higher = faster piRNA-guided slicing of the target
testSettings: guide: L1MC piRNA 5'p-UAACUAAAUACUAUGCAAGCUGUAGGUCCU; auxiliary factor: none (no GTSF1)
Whole data set: some 8,200 sequences, median “pre-steady-state target cleavage rate” near 0.024, cut for the highest 2% near 1.3. The sample holds the highest values, similar sequences and a random draw of the others, so the mix is not that of the screen.
Is pre-steady-state target cleavage rate at least 0.05? Then fulfilled. If not, not fulfilled.

I'd appreciate it if you could say whether `UGGACCUACGAGCUUGCAUAGUAUUUAGUUA` has pre-steady-state target cleavage rate at least equal to 0.05.
fulfilled

Is reported pre-steady-state target cleavage rate greater than or equal to 0.05 here: `AGGACCUACAGCGUGCAUAGUAUUUAGUUA`
fulfilled

Textbook exercise: given the entry `AGGACCUACCAGCUUGCAUAGUAUUUAGUUA` , state whether its pre-steady-state target cleavage rate is greater than or equal to 0.05.
fulfilled

Can `UCCACCUACAGACUUGCAUAGUAUUUAGUUA` be said to have pre-steady-state target cleavage rate at or above 0.05?
not fulfilled

Is pre-steady-state target cleavage rate for `UCCUGCUACAGCGUGCAUAGUAUUUAGUUA` at or above 0.05?
not fulfilled

Please tell me: is the sequence `AGGACGAUCAGCUUGCAUAGUAUUUAGAAA` at or over 0.05 in terms of pre-steady-state target cleavage rate?
not fulfilled

Tell me whether pre-steady-state target cleavage rate is at least 0.05 here: `UCCUCCUACAGCUUGCAUUGUAUUAAGUUA`
not fulfilled

I'd appreciate it if you could say whether `UCCUGCUACCGCUUGCAUAGUAUUUAGUUA` has pre-steady-state target cleavage rate at least equal to 0.05.
fulfilled

Exam item: decide whether the reported pre-steady-state target cleavage rate for `AGGACCUACCGCUUGCAUAGUAUUUAGUUA` is at least 0.05.
fulfilled

In plain terms: is recorded pre-steady-state target cleavage rate at least 0.05 for `AGGACGAUCAGCUUGCAUAGUAUUUAGUUA` ?
fulfilled

Form field: pre-steady-state target cleavage rate at least 0.05? Entry: `UCCACCUACCGCUUGCAUAGUAUUUAGUUA`
fulfilled

For this sequence, is measured pre-steady-state target cleavage rate 0.05 or higher? `UCCUGGAACAGCUUGCUAUGUAUUUAGUUA`
not fulfilled

Identify whether the reported pre-steady-state target cleavage rate of the following sequence is 0.05 or greater: `ACGACCUACAGCUUGCAUAGUAUUUUCAAA`
not fulfilled

Confirm if pre-steady-state target cleavage rate reported for the sequence `AGGACCUACAGCAUUGCAUAGUAUUUAGUUA` is 0.05 or above.
fulfilled

---

Tested on: MIWI (PIWIL1) piRISC loaded with L1MC piRNA (30 nt);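 note: 1 nM active piRISC with 0.1 nM target library at 33 °C single turnover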
assaySummary: pre-steady-state target cleavage rate (min^-1); higher = faster piRNA-guided slicing of the target
testSettings: guide: L1MC piRNA 5'p-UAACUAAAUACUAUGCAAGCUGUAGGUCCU; auxiliary factor: 500 nM mouse GTSF1
Over roughly 8,200 sequences, “pre-steady-state target cleavage rate” has its median near 0.024; the highest 2% begin near 1.3. The list comes from a sample in which the highest values are over-represented; it also holds close analogues and randomly drawn sequences.
Label met for high-side pre-steady-state target cleavage rate (at or above 0.9) and not met for low-side pre-steady-state target cleavage rate (below it).

Completed entries (count: 5):
sequenceData	studySystem	labelClass
AGGACCUACAGCUUGCAUAGUAUUAUAGUUA	MIWI (PIWIL1) piRISC loaded with L1MC piRNA (30 nt)	met
UGGACCUACAGCUUGCAUAGUAUUAGUUA	MIWI (PIWIL1) piRISC loaded with L1MC piRNA (30 nt)	not met
AGGACCUACAGCUUGCAAAGUAUAUAGUUA	MIWI (PIWIL1) piRISC loaded with L1MC piRNA (30 nt)	not met
AGGACCUACAGCUUGCAUAGUAUAUUAGUUA	MIWI (PIWIL1) piRISC loaded with L1MC piRNA (30 nt)	met
UGGACCUACAGCUUGCAUAGUAUUAUAGUUA	MIWI (PIWIL1) piRISC loaded with L1MC piRNA (30 nt)	met

Check this sequence for pre-steady-state target cleavage rate at or above 0.9: `AGGACCUUCAGCUUGCAAAGUAUUUAGUUA`
met

---

Test system: MIWI (PIWIL1) piRISC loaded with L1MC piRNA (30 nt);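 note: 1 nM active piRISC with 0.1 nM target library at 33 °C single turnover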
assaySummary: pre-steady-state target cleavage rate (min^-1); MIWI and MILI are mouse PIWI proteins and EfPiwi is from a freshwater sponge; tags in brackets are library labels; higher = faster piRNA-guided slicing of the target;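 note: 1 nM active piRISC with 0.1 nM target library at 33 °C single turnover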
testSettings: guide: L1MC piRNA 5'p-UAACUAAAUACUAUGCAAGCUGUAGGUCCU; auxiliary factor: none (no GTSF1)
In all, about 8,200 sequences were measured (“pre-steady-state target cleavage rate”: median about 0.024, highest 2% from about 1.3 on). Only a selection was taken, and the highest values are over-represented in it overall.
Record condition met whenever pre-steady-state target cleavage rate is at 0.06 or higher; record condition not met when lower.

Sample answers from the record:
sequenceData	labelClass
AGGACCUACUGCAUGCAUAGUAUUUAGUUA	condition not met
UGGACCUACAGCUUGCAUAGUAUGUAGUUA	condition not met
UCCACCUACAACUUGCAUAGUAUUUAGUUA	condition not met
AGGACCUACAACUUGCAUAGUAUUUAGUUA	condition met
UGGACCAACUGCUUGCAUAGUAUUUAGUUA	condition met

Does `UCCUGGAUCAGCUUGCAUAGUCUUUAGUUA` have a reported pre-steady-state target cleavage rate of at least 0.06?
condition not met

Hi, just wondering whether `UCGACCUACAACUUGCAUAGUAUUUAGUUA` shows pre-steady-state target cleavage rate of 0.06 or higher.
condition met

State whether the measured pre-steady-state target cleavage rate reaches 0.06, counting equality as reaching it, for `AGGACCUACACUUGCAUAGUAUUUAGUUA`
condition met

Is the recorded value of pre-steady-state target cleavage rate equal to or greater than 0.06 for this sequence? `UGCACCUACAGCUUGCAUAGUAUUUAGUUA`
condition met

Entry `AGCACCUACAGCUUGCAUAGUAUUUAGUUA` : is its pre-steady-state target cleavage rate no less than 0.06?
condition met

Quick check: does `AGGACCUACUGCUUGCAAAGUAUUUAGUUA` have pre-steady-state target cleavage rate greater than or equal to 0.06?
condition not met

Determine whether measured pre-steady-state target cleavage rate meets or exceeds 0.06 for `UGCACCUACAGCUUGCAUUGUAUUUAGUUA`
condition not met
